Origin of values: patent US20240270751A1

- SYSTEM_TESTED: DGKζ (Homo sapiens (Human), UniProt Q13574)
- Sequence (Q13574 other isoform, or with tags, fused parts or gaps): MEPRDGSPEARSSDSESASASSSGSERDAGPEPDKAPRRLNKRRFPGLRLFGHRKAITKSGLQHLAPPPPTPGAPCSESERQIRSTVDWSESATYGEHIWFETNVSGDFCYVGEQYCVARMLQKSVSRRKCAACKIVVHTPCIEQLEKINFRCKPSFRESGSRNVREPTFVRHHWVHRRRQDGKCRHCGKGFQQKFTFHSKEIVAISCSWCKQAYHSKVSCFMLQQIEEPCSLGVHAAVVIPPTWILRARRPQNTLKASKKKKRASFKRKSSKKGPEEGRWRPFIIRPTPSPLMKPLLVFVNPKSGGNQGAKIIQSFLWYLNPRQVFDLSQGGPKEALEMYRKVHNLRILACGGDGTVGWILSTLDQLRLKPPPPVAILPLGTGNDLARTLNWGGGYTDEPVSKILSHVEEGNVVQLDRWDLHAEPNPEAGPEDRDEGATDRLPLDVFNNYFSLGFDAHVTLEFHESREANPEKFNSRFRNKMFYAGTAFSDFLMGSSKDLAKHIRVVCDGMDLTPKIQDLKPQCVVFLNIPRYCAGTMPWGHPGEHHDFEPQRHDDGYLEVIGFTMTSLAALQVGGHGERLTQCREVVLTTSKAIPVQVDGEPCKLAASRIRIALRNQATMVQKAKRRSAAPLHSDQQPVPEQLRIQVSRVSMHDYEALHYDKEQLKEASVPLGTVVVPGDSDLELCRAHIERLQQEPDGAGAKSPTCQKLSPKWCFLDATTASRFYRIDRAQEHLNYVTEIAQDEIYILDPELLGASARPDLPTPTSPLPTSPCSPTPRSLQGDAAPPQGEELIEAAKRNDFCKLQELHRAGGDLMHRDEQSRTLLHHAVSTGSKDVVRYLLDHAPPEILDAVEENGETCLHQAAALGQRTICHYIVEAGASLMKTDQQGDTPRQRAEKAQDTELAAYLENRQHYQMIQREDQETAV
- ASSAY_COMMENT: Biochemical DGK IC50 assay, DGKζ ADP-Glo assay
- TEST_CONTEXT: 0.5 nM enzyme, 140 μM ATP, 80 μM DAG; read-out: DGKζ ADP-Glo assay IC50
Below: a set of entries, each annotated with reported IC50.
RESULT_TYPE: IC50 (nM)

[[record]]
compound = "COCc1cc(C(C)N2C[C@H](C)N(c3cc(=O)n(C)c4cn(CC#N)nc34)C[C@H]2C)ccc1F (some centres unmarked) [Compound A30]"
system_tested = "DGKζ (Homo sapiens (Human), UniProt Q13574)"
value_comparator = "="
observed_measurement = 110

[[record]]
compound = "CC#CCn1cc2c(n1)c(N1C[C@@H](CC)N(C(C)c3cnc4ccccc4n3)C[C@@H]1C)cc(=O)n2C (single isomer, unassigned) [Compound A394a]"
system_tested = "DGKζ (Homo sapiens (Human), UniProt Q13574)"
value_comparator = "="
observed_measurement = 5400

[[record]]
compound = "CCC(c1ccc(F)cc1C(F)(F)F)N1C[C@H](C)N(c2cc(=O)n(C)c3cn(CC#N)nc23)C[C@H]1C (some centres unmarked) [Compound A256]"
system_tested = "DGKζ (Homo sapiens (Human), UniProt Q13574)"
value_comparator = "="
observed_measurement = 315

[[record]]
compound = "CC[C@H]1CN(C(C)c2ccc(C)nn2)[C@H](CC)CN1c1cc(=O)n(C)c2cn(CC#N)nc12 (some centres unmarked) [Compound A365]"
system_tested = "DGKζ (Homo sapiens (Human), UniProt Q13574)"
value_comparator = "="
observed_measurement = 4710

[[record]]
compound = "CC[C@H]1CN(C(C)c2ccc(C)cc2)[C@H](CC)CN1c1cc(=O)n(C)c2cn(CC#N)nc12 (single isomer, unassigned) [Compound A127a]"
system_tested = "DGKζ (Homo sapiens (Human), UniProt Q13574)"
value_comparator = "="
observed_measurement = 84

[[record]]
compound = "CC(c1c(Cl)cc(F)cc1Cl)N1C[C@H](C)N(c2cc(=O)n(C)c3cn(CC#N)nc23)C[C@H]1C (some centres unmarked) [Compound A272]"
system_tested = "DGKζ (Homo sapiens (Human), UniProt Q13574)"
value_comparator = "="
observed_measurement = 411

[[record]]
compound = "CC(c1ccc(F)cn1)N1C[C@H](C)N(c2cc(=O)n(C)c3cn(CC#N)nc23)C[C@H]1C (some centres unmarked) [Compound A33]"
system_tested = "DGKζ (Homo sapiens (Human), UniProt Q13574)"
value_comparator = ">"
observed_measurement = 10000

[[record]]
compound = "CC[C@H]1CN(C(C)c2ccc3c(n2)C(C)(C)CO3)[C@H](CC)CN1c1cc(=O)n(C)c2cn(CC#N)nc12 (some centres unmarked) [Compound A352]"
system_tested = "DGKζ (Homo sapiens (Human), UniProt Q13574)"
value_comparator = "="
observed_measurement = 6

[[record]]
compound = "CC[C@H]1CN(C(C)c2ccccc2)[C@H](CC)CN1c1cc(=O)n(C)c2cn(CC#N)nc12 (some centres unmarked) [Compound A89]"
system_tested = "DGKζ (Homo sapiens (Human), UniProt Q13574)"
value_comparator = "="
observed_measurement = 296

[[record]]
compound = "[2H]C([2H])([2H])c1cnc2ccc(C(C)N3C[C@H](C)N(c4cc(=O)n(C)c5cn(CC#N)nc45)C[C@H]3C)cc2n1 (single isomer, unassigned) [Compound A313b]"
system_tested = "DGKζ (Homo sapiens (Human), UniProt Q13574)"
value_comparator = "="
observed_measurement = 51

[[record]]
compound = "COC(=O)C1CN(c2cc(=O)n(C)c3cn(CC#N)nc23)CCN1[C@@H](C)c1ccc2nccnc2c1 (single isomer, unassigned) [Compound A173a]"
system_tested = "DGKζ (Homo sapiens (Human), UniProt Q13574)"
value_comparator = "="
observed_measurement = 502

[[record]]
compound = "CC[C@H]1CN(C(C)c2ccc(CN3CCOCC3)cc2)[C@H](CC)CN1c1cc(=O)n(C)c2cn(CC#N)nc12 (single isomer, unassigned) [Compound A383a]"
system_tested = "DGKζ (Homo sapiens (Human), UniProt Q13574)"
value_comparator = "="
observed_measurement = 158

[[record]]
compound = "CC[C@H]1CN(C(C)c2ccc(F)cc2C2CC2)[C@H](CC)CN1c1cc(=O)n(C)c2cn(CC#N)nc12 (some centres unmarked) [Compound A175]"
system_tested = "DGKζ (Homo sapiens (Human), UniProt Q13574)"
value_comparator = "="
observed_measurement = 305

[[record]]
compound = "CC[C@H]1CN(C(C)c2ccccc2NC(C)=O)[C@H](CC)CN1c1cc(=O)n(C)c2cn(CC#N)nc12 (some centres unmarked) [Compound A165]"
system_tested = "DGKζ (Homo sapiens (Human), UniProt Q13574)"
value_comparator = "="
observed_measurement = 2840

[[record]]
compound = "CC[C@H]1CN(C(C)c2nn(CC)cc2C)[C@H](CC)CN1c1cc(=O)n(C)c2cn(CC#N)nc12 (some centres unmarked) [Compound A216]"
system_tested = "DGKζ (Homo sapiens (Human), UniProt Q13574)"
value_comparator = "="
observed_measurement = 2370

[[record]]
compound = "CC(c1ccc2nccnc2c1)N1C[C@H](C)N(c2nc(=O)n(C)c3cn(CC#N)nc23)C[C@H]1C (single isomer, unassigned) [Compound A220]"
system_tested = "DGKζ (Homo sapiens (Human), UniProt Q13574)"
value_comparator = "="
observed_measurement = 67

[[record]]
compound = "CC[C@H]1CN(C(C)c2ccc(F)cc2OC(C)C)[C@H](CC)CN1c1cc(=O)n(C)c2cn(CC#N)nc12 (some centres unmarked) [Compound A142]"
system_tested = "DGKζ (Homo sapiens (Human), UniProt Q13574)"
value_comparator = "="
observed_measurement = 1220

[[record]]
compound = "CC[C@H]1CN(C(C)c2ncc(C(F)(F)F)cc2F)[C@H](CC)CN1c1cc(=O)n(C)c2cn(CC#N)nc12 (single isomer, unassigned) [Compound A354a]"
system_tested = "DGKζ (Homo sapiens (Human), UniProt Q13574)"
value_comparator = "="
observed_measurement = 3130

[[record]]
compound = "C[C@@H]1CN(c2cc(=O)n(C)c3c(F)nn(CC#N)c23)[C@@H](C)CN1[C@H](C)c1ccc2nccnc2c1 [Compound A258]"
system_tested = "DGKζ (Homo sapiens (Human), UniProt Q13574)"
value_comparator = ">"
observed_measurement = 10000

[[record]]
compound = "CC[C@H]1CN(C(C)c2ccc(F)cc2CO)[C@H](CC)CN1c1cc(=O)n(C)c2cn(CC#N)nc12 (some centres unmarked) [Compound A152]"
system_tested = "DGKζ (Homo sapiens (Human), UniProt Q13574)"
value_comparator = "="
observed_measurement = 1770

[[record]]
compound = "CC[C@@H]1CN(c2cc(=O)n(C)c3cn(CC#N)nc23)[C@@H](CC)CN1Cc1ccc(F)cc1 [Compound A70]"
system_tested = "DGKζ (Homo sapiens (Human), UniProt Q13574)"
value_comparator = "="
observed_measurement = 640

[[record]]
compound = "CC[C@H]1CN(C(C)c2ccc(C3CC3)cc2OC)[C@H](CC)CN1c1cc(=O)n(C)c2cn(CC#N)nc12 (single isomer, unassigned) [Compound A199a]"
system_tested = "DGKζ (Homo sapiens (Human), UniProt Q13574)"
value_comparator = "="
observed_measurement = 2460

[[record]]
compound = "CC[C@H]1CN(C(C)c2ccccc2OC(F)(F)F)[C@H](CC)CN1c1cc(=O)n(C)c2cn(CC#N)nc12 (some centres unmarked) [Compound A80]"
system_tested = "DGKζ (Homo sapiens (Human), UniProt Q13574)"
value_comparator = "="
observed_measurement = 663

[[record]]
compound = "CC(c1ccc2c(c1)OC1(CC1)CO2)N1C[C@H](C)N(c2cc(=O)n(C)c3cn(CC#N)nc23)C[C@H]1C (some centres unmarked) [Compound A323]"
system_tested = "DGKζ (Homo sapiens (Human), UniProt Q13574)"
value_comparator = "="
observed_measurement = 7

[[record]]
compound = "CCC(c1ccc(C2CC2)cc1)N1C[C@H](C)N(c2cc(=O)n(C)c3cn(CC#N)nc23)C[C@H]1C (some centres unmarked) [Compound A36]"
system_tested = "DGKζ (Homo sapiens (Human), UniProt Q13574)"
value_comparator = "="
observed_measurement = 970

[[record]]
compound = "CC(c1ccc2nccnc2c1)N1C[C@H](C)N(c2c(F)c(=O)n(C)c3cn(CC#N)nc23)C[C@H]1C (some centres unmarked) [Compound A168]"
system_tested = "DGKζ (Homo sapiens (Human), UniProt Q13574)"
value_comparator = "="
observed_measurement = 28


====

Below: a set of entries, each annotated with reported IC50.
- SYSTEM_TESTED: UniProt Q13574
- ASSAY_COMMENT: Biochemical DGK IC50 assay, DGKζ ADP-Glo assay
- TEST_CONTEXT: 0.5 nM enzyme, 140 μM ATP, 80 μM DAG; read-out: DGKζ ADP-Glo assay IC50
RESULT_TYPE: IC50

[[record]]
compound = "CCc1cc(F)ccc1C(C)N1C[C@H](CC)N(c2cc(=O)n(C)c3cn(CC#N)nc23)C[C@H]1CC (stereo partly drawn) [Compound A205]"
observed_measurement = "151 nM"

[[record]]
compound = "CC=CCn1cc2c(n1)c(N1C[C@@H](C)N([C@@H](C)c3ccc4ncc(C)nc4c3)C[C@@H]1C)cc(=O)n2C [Compound A302]"
observed_measurement = "68 nM"

[[record]]
compound = "CC(c1ccc2nc(C(F)(F)F)cnc2c1)N1C[C@H](C)N(c2cc(=O)n(C)c3cn(CC#N)nc23)C[C@H]1C (stereo partly drawn) [Compound A315]"
observed_measurement = "3590 nM"

[[record]]
compound = "CC[C@H]1CN(C(C)c2ccc(C(F)F)cc2)[C@H](CC)CN1c1cc(=O)n(C)c2cn(CC#N)nc12 (stereo partly drawn) [Compound A128]"
observed_measurement = "112 nM"

[[record]]
compound = "CC[C@H]1CN(C(C)c2ccccc2OC)[C@H](CC)CN1c1cc(=O)n(C)c2cn(CC#N)nc12 (single isomer, unassigned) [Compound A106a]"
observed_measurement = "2190 nM"

[[record]]
compound = "CC[C@H]1CN(C(c2ccc(F)cc2)c2ccc(F)cc2OC)[C@H](CC)CN1c1cc(=O)n(C)c2cn(CC#N)nc12 (stereo partly drawn) [Compound A53]"
observed_measurement = "7.8 nM"

